Quick record of MIC values for Escherichia coli K88.

Some solved entries appear below for comparison.
CC[C@H](C)[C@H](NC(=O)[C@H](CCCCN)NC(=O)[C@H](C)NC(=O)[C@H](C)N)C(=O)N[C@H](C(=O)N[C@@H](CC(C)C)C(=O)N[C@@H](CC(N)=O)C(=O)N1CCC[C@H]1C(=O)N[C@@H](CCCCN)C(=O)N[C@@H](Cc1ccccc1)C(=O)N[C@@H](CCCN=C(N)N)C(=O)N[C@H]1CSSC[C@@H](C(N)=O)NC(=O)[C@H](Cc2ccccc2)NC(=O)[C@H](C)NC(=O)[C@H](C)NC(=O)[C@H](CCCCN)NC1=O)[C@@H](C)CC: ≥ 32 µM
CC[C@H](C)[C@H](N)C(=O)N[C@@H](Cc1cnc[nH]1)C(=O)N[C@@H](Cc1cnc[nH]1)C(=O)N[C@H](C(=O)N[C@@H](Cc1cnc[nH]1)C(=O)N[C@@H](Cc1cnc[nH]1)C(=O)N[C@@H](Cc1cnc[nH]1)C(=O)N[C@H](C(=O)N[C@@H](Cc1cnc[nH]1)C(=O)N[C@@H](Cc1cnc[nH]1)C(=O)N[C@H](C(=O)N[C@@H](Cc1cnc[nH]1)C(=O)N[C@@H](Cc1cnc[nH]1)C(=O)N[C@@H](Cc1cnc[nH]1)C(N)=O)[C@@H](C)CC)[C@@H](C)CC)[C@@H](C)CC: ≥ 64 µM

Switching to the query record.
Qu. For Escherichia coli K88, give MIC of the listed molecule: CC(C)C[C@H](NC(=O)[C@H](CCCN=C(N)N)NC(=O)[C@@H](NC(=O)[C@H](CCCN=C(N)N)NC(=O)[C@@H]1CCCN1C(=O)[C@H](CCCN=C(N)N)NC(=O)[C@H](CCCCN)NC(=O)[C@@H](N)CCC(N)=O)C(C)C)C(=O)N[C@@H](CO)C(=O)N[C@@H](C)C(=O)O
Ans. ≥ 64 µM
